B1: PhoQ; a variant is named by its letters at X, in order, P23837 (parent)
chain: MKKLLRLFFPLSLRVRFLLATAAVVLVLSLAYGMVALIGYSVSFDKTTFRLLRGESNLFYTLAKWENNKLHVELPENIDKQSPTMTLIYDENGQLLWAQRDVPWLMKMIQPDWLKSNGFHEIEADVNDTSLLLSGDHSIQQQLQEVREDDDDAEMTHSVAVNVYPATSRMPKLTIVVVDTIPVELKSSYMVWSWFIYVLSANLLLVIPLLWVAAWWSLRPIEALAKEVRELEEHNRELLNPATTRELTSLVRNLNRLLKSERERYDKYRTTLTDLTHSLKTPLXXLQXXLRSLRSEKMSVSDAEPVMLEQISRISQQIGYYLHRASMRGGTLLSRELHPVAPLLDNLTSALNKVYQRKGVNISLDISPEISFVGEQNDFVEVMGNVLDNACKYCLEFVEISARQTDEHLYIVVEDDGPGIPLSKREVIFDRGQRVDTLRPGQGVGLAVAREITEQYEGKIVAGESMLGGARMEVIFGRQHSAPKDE

Variants of: B1
Assay: enrichment ratio after two sorts for PhoP signalling (ratio (wild type AVST 3.29)); higher = more functional
Settings: with PhoP (E. coli)
The full ranking holds about 140,000 sequences; the median of “enrichment ratio after two sorts for PhoP signalling” is about 0, and the highest 2% start at about 11. For the sample, the highest values were picked, then their nearest neighbours and some sequences at random.
ASSAY_METRIC: enrichment ratio

| VARIANT_SPEC | enrichment ratio |
| --- | --- |
| VELP | ≤ 0.25 |

**Query** In one line, give reported enrichment ratio of the entry ELCR .
**Result** ≤ 0.25

**Query** Hello, please tell me recorded enrichment ratio for this one: LTQM
**Result** ≤ 0.25
